# METHOD_DESCRIPTION: protein stability index of a GFP-peptide fusion (GPS, HEK-293T) (PSI 1-6); higher = more stable;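 also: 24-mer peptide tiles fused after GFP, lentivirally expressed, FACS-sorted into six equal bins by GFP/DsRed ratio, decoded by Illumina sequencing, PSI is the read-weighted mean bin number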
# CONDITION_SET: treatment: MLN4924 1 uM, 8 h; c terminus: a fixed tail appended
Dear colleague, classification is by protein stability index, with ranges listed here: bucket A = under 3, bucket B = from 3 up to 4, bucket C = 4 and over

Please review the entries below; each comes with its answer.
NTKAEMEMSLAEELNHGRQGENQE [FATE1] : bucket C
RQSRRQSVSRFFADSGADPKGEPG [FBF1] : bucket C
QPVPNTTEPDYKSKDWVFLNYTYK [STK38L] : bucket B
QDLCCRTIVSCTPVHLVDKLPLPS [RAB40A] : bucket A
CNVKYKRWALLSCRGKKPSRIYGQ [KLHDC10] : bucket A

Q: Which of the defined bands does the recorded protein stability index of ARHNYNDLCPPIGRRAATALLWLS [GNAS] sit within?
A: bucket A

Q: // same read-out, input: FFVPLSYLLMVTVILLPYVSKVTG [TMEM175]
A: bucket B

----------
Quick reference for protein stability index among some sequences
# METHOD_DESCRIPTION: protein stability index of a GFP-peptide fusion (GPS, HEK-293T) (PSI 1-6); higher = more stable
# CONDITION_SET: treatment: MLN4924 1 uM, 8 h; c terminus: a fixed tail appended
Number only, no unit.

# count of solved cases: 4
KLKNTVTIQQEKLLAEKEEKLQKE [SASS6] : 5.2
TESQLTPCIRNVTSPTRQHHVERE [BTBD10] : 4.95
DMVQKSVSKTLPSTWSDPSVNISL [CLINT1] : 3.2
LAVSNMGARSKGQCPEPPIVVHCS [PTPN9] : 2.95

Q: Report protein stability index for TPASQSPKKPPAKDPLADLNIKDF [SNAP91] please.
A: 4.87

Q: // same read-out, input: QLQHDFPRALIFSTDDFFFREDGA [N4BP2L1]
A: 3.08

Q: // same read-out, input: CLAGCEGAHEQVDFKDFYPAIADL [P3H4]
A: 3.68

Q: // same read-out, input: KSQTACLPFVLAAAVSRKKKRRMG [EHMT1]
A: 3.61

Q: // same read-out, input: CYDVYSPDKEEQLPFGPFNGTAWT [PKD2L1]
A: 2.59

Q: // same read-out, input: EKPYGCSECGKAFPRKSELTEHQR [ZNF649]
A: 4.44

Q: // same read-out, input: STPRPSITPTKKIELDRTIMPDGT [C2CD2L]
A: 4.87

Q: // same read-out, input: LARADLEMQIENLKEELAYLKKNH [KRT17]
A: 3.21

Q: // same read-out, input: LGFAYAKEDKIMLDDRKNEEDGGA [MIA2]
A: 5.18

----------
# METHOD_DESCRIPTION: protein stability index of a GFP-peptide fusion (GPS, HEK-293T) (PSI 1-6); higher = more stable
# CONDITION_SET: treatment: MLN4924 1 uM, 8 h; c terminus: a fixed tail appended
READOUT_KIND: protein stability index
Number only, no unit.

# count of solved cases: 8
ILREFEELHRRLDEEQQVLLSRLE [TRIM39] : 3.63
LLPLVTLCDGNPRRPSPVLRHLEL [SCNN1D] : 2.27
YKVRHVHWKTWLAIKCSPSLHVDD [RIPK4] : 1.98
IIVNLLWFIHLVFVVLAFLTGVLC [TMEM192] : 2.3
VAERGTTQGCHPAWEPRSESQASR [ZNF8] : 4.6
RSHLIGHQRTHSEEETYKCLECGK [ZNF449] : 4.39
LHFIATNYLIFSQKPEFQDLSVEE [RHOBTB3] : 2.15
SHGANVNHTTVTNSTPLRAACFDG [FEM1B] : 4.25

Q: Report protein stability index for KSSSVDSELTSLCQSVLEDFNLCL [SMG5] please.
A: 2.97

Q: // same read-out, input: CLLICAEMYQVSRLQHICELFIIT [RHOBTB3]
A: 3

Q: // same read-out, input: RCGKFLQDGLPPTWRDFRTLEAFH [MED27]
A: 2.12

Q: // same read-out, input: MAAWGKKHAGKDPVRDECEERNRF [FAM9B]
A: 4.62

Q: // same read-out, input: YMVRRYFNKPSRVPAPEAFRDPIW [MYORG]
A: 2.12

----------
Quick reference for protein stability index among some sequences
# METHOD_DESCRIPTION: protein stability index of a GFP-peptide fusion (GPS, HEK-293T) (PSI 1-6); higher = more stable
# CONDITION_SET: treatment: DMSO; c terminus: a fixed tail appended
Number only, no unit.

# count of solved cases: 6
VGNYRLKEYEKALKYVRGLLQTEP [FIS1] : 2.19
AKPEVLSIQWPGKRSSRRVQRHNS [NECAB1] : 4.23
PYFRAMFTGELAESRQTEVVIRDI [KLHL20] : 2.77
HSCTCVLYTPSNEHFGIVPLEAMY [ALG2] : 2.43
DEMCANNDFVQVDPGQVGLINSNV [FAN1] : 4.82
LRWERAWFPPAIMGVVSLVFLIIY [ARL6IP1] : 3.17

Turning to the following sequence.
Q: Report protein stability index for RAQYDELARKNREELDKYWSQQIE [KRT18] please.
A: 3.43

----------
Quick reference for protein stability index among some sequences
# METHOD_DESCRIPTION: protein stability index of a GFP-peptide fusion (GPS, HEK-293T) (PSI 1-6); higher = more stable
# CONDITION_SET: treatment: DMSO; c terminus: a fixed tail appended
Number only, no unit.

# count of solved cases: 2
GLSAEDGVWAVIISHQQCWASTSP [TRIM15] : 2.88
LERASATLQDLVFDECGITDDQLL [PRAME] : 4.65

Q: Report protein stability index for RQPAFDTFDGSLFAVFPSLNEEQT [ETS2] please.
A: 3.89

Q: // same read-out, input: TQIKGLKNKPKKMGHIKPDLIDVD [PHTF1]
A: 4.42

Q: // same read-out, input: VVAEAQTRVSQLGLQVEGLRRRLE [LRRC45]
A: 3.71

Q: // same read-out, input: ASLGEKRDHHSTHYRASEEEPEYG [CHGB]
A: 5.37

Q: // same read-out, input: IIVNLLWFIHLVFVVLAFLTGVLC [TMEM192]
A: 2.78

----------
# METHOD_DESCRIPTION: protein stability index of a GFP-peptide fusion (GPS, HEK-293T) (PSI 1-6); higher = more stable
# CONDITION_SET: treatment: MLN4924 1 uM, 8 h; c terminus: a fixed tail appended
Response key: class 1 means protein stability index >= 3; class 0 means protein stability index < 3.

Please review the entries below; each comes with its answer.
KLDLWSFLDIPRSRLVKYPLLLKE [NET1] : class 0
SIVIFCLETLPEFRDEKDYPASTS [KCNA3] : class 0
ANCIVHRDLKPENILVTSGGTVKL [CDK4] : class 1
KTGILILILSIIFIEGYCTPEEVI [MAGEA10] : class 0
TSSCPNVSERSFDNVRSLKVESGA [CRYBA1] : class 1
FRVNCYPGIDIREDLAQKLNLEED [HESX1] : class 1

Q: Item NEDGPSSENLEEETENIIAANHWV [TRIP13] with protein stability index of 3 or above?
A: class 1

Q: // same read-out, input: HDAQVRLYKEELEQTYHAKLENAR [LMNB1]
A: class 1

Q: // same read-out, input: SQWKDPALSQLICFCRESRYMDQW [GADD45A]
A: class 0

Q: // same read-out, input: YRGTLKRQPAFDTFDGSLFAVFPS [ETS2]
A: class 0

Q: // same read-out, input: PDPLNICVFILLLVFIVVKCFTSE [RTP4]
A: class 0

Q: // same read-out, input: VGNYRLKEYEKALKYVRGLLQTEP [FIS1]
A: class 0

----------
# METHOD_DESCRIPTION: protein stability index of a GFP-peptide fusion (GPS, HEK-293T) (PSI 1-6); higher = more stable
# CONDITION_SET: treatment: MLN4924 1 uM, 8 h; c terminus: a fixed tail appended
Response key: y means protein stability index >= 4; n means protein stability index < 4.

QSSQRMRQNLKLLVEETSCQQNMI [CEP70] : n
MASCAEPSEPSAPLPAGVPPLEDF [FKBP8] : y

Q: Item GCIAAENCIGIRDFALHYCLHHVH [GAN] with protein stability index of 4 or above?
A: n

Q: // same read-out, input: PNVIEYYENFLEDKALMIAMEYAP [NEK8]
A: n

Q: // same read-out, input: LFRELWRYHFATGVWHQMGTDGYM [KLHDC10]
A: n

Q: // same read-out, input: LFRWPDLQHAVELKPLCGCHSFAA [SMAD6]
A: n

Q: // same read-out, input: LHVACELARPECLFLLLGHGASPG [ANKRD9]
A: n

Q: // same read-out, input: RYPELDTPKLDCFLSGMEAAPRTL [TBX6]
A: n

Q: // same read-out, input: TAGLLREQVAQLKQKVMTHVSNGC [JUNB]
A: n

Q: // same read-out, input: ERERQPCGDGNTETHRAPDLVQWT [SOAT2]
A: y

Q: // same read-out, input: TSSPAIWKFPVPVLKTSRSTPLSP [KLHL13]
A: n

Q: // same read-out, input: TQRRTSMGGTQQQFVEGVRMEEIV [CTNNB1]
A: y

Q: // same read-out, input: SRGELIPISPSTEVGGSGIGTPPS [MYBL2]
A: y
